# target of assay: human glypican-3 (GPC3) (human, UniProt P51654 25-554); further: test concentration or dose not given here
# protocol summary: cell-based or functional assay
property label: JHH-7 Internalization (MFI), Day 14 in mouse plasma

• H18L6_LC_G34Q mAb, v40208 (antibody, human IgG1, kappa, V domains shown, Full-size IgG1/kappa) VH: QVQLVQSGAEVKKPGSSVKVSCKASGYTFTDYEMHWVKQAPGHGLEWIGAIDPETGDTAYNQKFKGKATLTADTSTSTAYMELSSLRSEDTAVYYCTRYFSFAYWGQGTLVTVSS VL: EIVLTQSPATLSLSPGERATISCRSSQSLRHSNQNTYLQWYQQKPGQAPRLLIYKVSNRFSGVPARFSGSGSGTDFTLTISSLEPEDFAVYFCYQSKHVPYTFGGGTKVEIKR = 106
• H18L6_LC_G34E mAb, v40204 (antibody, human IgG1, kappa, V domains shown, M3-H18L6 chains with the stated light chain point mutation, IgG1/kappa) VH: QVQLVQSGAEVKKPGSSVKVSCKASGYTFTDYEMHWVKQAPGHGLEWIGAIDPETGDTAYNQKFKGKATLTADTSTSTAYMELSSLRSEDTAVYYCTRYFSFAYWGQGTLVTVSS VL: EIVLTQSPATLSLSPGERATISCRSSQSLRHSNENTYLQWYQQKPGQAPRLLIYKVSNRFSGVPARFSGSGSGTDFTLTISSLEPEDFAVYFCYQSKHVPYTFGGGTKVEIKR = 73
• H18L6_LC_G34K mAb, v40207 (antibody, human IgG1, kappa, V domains shown, Full-size IgG1/kappa) VH: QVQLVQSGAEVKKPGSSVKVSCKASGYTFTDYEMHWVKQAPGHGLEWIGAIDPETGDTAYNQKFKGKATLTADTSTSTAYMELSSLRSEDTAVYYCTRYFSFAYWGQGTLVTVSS VL: EIVLTQSPATLSLSPGERATISCRSSQSLRHSNKNTYLQWYQQKPGQAPRLLIYKVSNRFSGVPARFSGSGSGTDFTLTISSLEPEDFAVYFCYQSKHVPYTFGGGTKVEIKR = 115
• H18L6_LC_G34D mAb, v40203 (antibody, human IgG1, kappa, V domains shown) VH: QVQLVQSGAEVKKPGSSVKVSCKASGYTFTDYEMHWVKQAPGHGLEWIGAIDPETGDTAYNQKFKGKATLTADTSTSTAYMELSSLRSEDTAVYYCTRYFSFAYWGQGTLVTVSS VL: EIVLTQSPATLSLSPGERATISCRSSQSLRHSNDNTYLQWYQQKPGQAPRLLIYKVSNRFSGVPARFSGSGSGTDFTLTISSLEPEDFAVYFCYQSKHVPYTFGGGTKVEIKR = 63
• H18L6_LC_G34A mAb, v40212 (antibody, human IgG1, kappa, V domains shown, M3-H18L6 chains with the stated light chain point mutation, IgG1/kappa) VH: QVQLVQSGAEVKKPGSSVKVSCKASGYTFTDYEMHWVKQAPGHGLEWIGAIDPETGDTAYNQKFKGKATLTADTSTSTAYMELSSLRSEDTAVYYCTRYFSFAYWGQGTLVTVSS VL: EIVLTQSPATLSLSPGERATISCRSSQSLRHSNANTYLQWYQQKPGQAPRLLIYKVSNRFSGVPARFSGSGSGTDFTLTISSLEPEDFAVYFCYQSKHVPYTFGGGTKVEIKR = 75
• H18L6_LC_G34R mAb, v40206 (antibody, human IgG1, kappa, V domains shown, Full-size IgG1/kappa) VH: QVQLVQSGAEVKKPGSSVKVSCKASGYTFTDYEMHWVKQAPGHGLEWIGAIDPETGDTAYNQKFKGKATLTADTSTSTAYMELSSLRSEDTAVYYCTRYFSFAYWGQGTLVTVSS VL: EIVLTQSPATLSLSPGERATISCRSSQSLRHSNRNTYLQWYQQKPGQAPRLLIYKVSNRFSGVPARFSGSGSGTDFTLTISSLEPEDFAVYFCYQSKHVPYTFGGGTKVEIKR = 115
